System: HEK-293T
ASSAY_METHOD_TEXT: Multiplex assay against HEK293T
Assay type: toxicity, cell-based
ASSAY_CONTEXT: human, 12 h, 1 µM, compound concentration 1 uM, replicate 1
OBSERVED_PROPERTY: Population Mitotic Cells (%)
Answer format: number, then unit.

Endpoint output: Population Mitotic Cells (%) of O=C(Nc1ccc(-n2nc(-c3cccnc3)cc2C(F)(F)F)cn1)c1ccc(-c2ccccc2)c(F)c1 [BI 2049] . Value?
53%

Now try "CCc1cccc(CC)c1NC(=O)c1nn(C)c2c1CCc1cnc(Nc3ccc(C(=O)NC4CCN(C)CC4)cc3OC(F)(F)F)nc1-2" .
33%

Now try "Cc1ccc(C(=O)Nc2cccc(C(F)(F)F)c2)cc1Nc1nc(-c2cccnc2)nc2c1cnn2C" .
36%

Now try Cn1nc(C(F)(F)F)cc1-c1cnc(N2CCc3cc(S(=O)(=O)Nc4c(F)cc(Cl)cc4F)cc(N4CCCC4=O)c32)nc1 [TP-020] .
74%

Now try "CCNc1cc(N[C@H]2CC[C@H](O)CC2)nc(Nc2ccc3c(ccn3Cc3ccccc3)c2)n1" .
76%

====

I'd appreciate it if you could supply Population Hoechst High Intensity Objects (%) values for the items below.
Test system: HEK-293T
ASSAY_METHOD_TEXT: Multiplex assay against HEK293T
Assay type: toxicity, cell-based
ASSAY_CONTEXT: human, 48 h, 1 µM, compound concentration 1 uM, replicate 1
Please respond with the number in % and leave the unit unwritten.

Which Population Hoechst High Intensity Objects (%) is reported with HEK-293T for this entry: CN1CCC(=C2c3ccccc3CC(=O)c3sccc32)CC1.O=C(O)/C=C/C(=O)O [KETOTIFEN FUMARATE] ?
15

Now try O=C(Nc1ccc(-n2nc(-c3cccnc3)cc2C(F)(F)F)cn1)c1ccc(-c2ccccc2)c(F)c1 [BI 2049] .
18

Now try "O=C1N/C(=N/c2ccccc2F)S/C1=C\c1ccc(C(=O)O)cc1" .
16

Now try "CCOc1cc(C(=O)N2CCC(N3CCN(C)CC3)CC2)ccc1Nc1ncc2c(n1)N(C1CCCC1)c1ccccc1C(=O)N2C" .
20

Now try "Cc1ccc(C(=O)Nc2cccc(C(F)(F)F)c2)cc1Nc1nc(-c2cccnc2)nc2c1cnn2C" .
15

Now try "O=C(Nc1ccc(Cl)cc1)Nc1cccc(-c2cccc(N3CCCC3)n2)c1" .
9

Now try "COc1cc(N2CCN(C)CC2)ccc1Nc1ncc2c(n1)N(C)c1ccccc1C(=O)N2C" .
8

Now try CN1C2CCC1CC(OC(c1ccc(F)cc1)c1ccc(F)cc1)C2.Cl (centres undefined) .
19

Now try "CCc1cccc(CC)c1NC(=O)c1nn(C)c2c1CCc1cnc(Nc3ccc(C(=O)NC4CCN(C)CC4)cc3OC(F)(F)F)nc1-2" .
12

====

Test system: U2OS
ASSAY_METHOD_TEXT: Multiplex assay against U2OS
Type: toxicity, cell-based
ASSAY_CONTEXT: human, 48 h, 1 µM, compound concentration 1 uM, replicate 1
Rule: Population Mitotic Cells (%) below 60% gives True, anything at or above gives False.

Say whether its Population Mitotic Cells (%) is strictly beneath 60%. Entry: O=C1NC(=O)C(c2cnc3ccccn23)=C1c1cn2c3c(cc(F)cc13)CN(C(=O)N1CCCCC1)CC2 [LY-2090314]
True

Now try "Cc1cc(C)c(S(=O)(=O)N(Cc2ccc(-c3cccc(S(C)(=O)=O)c3)cc2)Cc2ccc(C(F)(F)F)o2)c(C)c1" .
True

Now try "O=C(Nc1ccc(-c2ccnc(Nc3ccc(N4CCOCC4)cc3)n2)cc1)[C@@H]1CCCN1" .
False

Now try "S=C(NCCCc1c[nH]cn1)NCCCN(Cc1ccc(Cl)c(Cl)c1)c1ccc(Br)cn1" .
False

Now try CN1C2CCC1CC(OC(c1ccc(F)cc1)c1ccc(F)cc1)C2.Cl (stereo unspecified) .
False

Now try "Cl.Oc1ccc2c3c1O[C@H]1c4[nH]c5c(c4C[C@@]4(O)[C@@H](C2)N(CC2CC2)CC[C@]314)C[C@@]1(O)[C@H]2Cc3ccc(O)c4c3[C@@]1(CCN2CC1CC1)[C@H]5O4" .
False

Now try "COc1cc(N2CCN(C)CC2)ccc1Nc1ncc2c(n1)N(C)c1ccccc1C(=O)N2C" .
True

Now try CCOC(=O)c1c(C)[nH]c2ccc3c(c12)CN1CCc2cc(OC)ccc2C1O3 (stereo unspecified) .
True

Now try "CNc1cc(Oc2cc(C(=O)Nc3cc(N4CCN(C)CC4)cc(C(F)(F)F)c3)ccc2C)ncn1" .
True

Now try "CCN1CCN(Cc2ccc(Nc3ncc(F)c(-c4cc(F)c5nc(C)n(C(C)C)c5c4)n3)nc2)CC1.CS(=O)(=O)O" .
True

Now try O=C(Cc1ccc(-c2ccc(OCCN3CCOCC3)cc2)cn1)NCc1ccccc1 [TIRBANIBULIN] .
True

Now try CCCn1c(=O)c2[nH]c(-c3cnn(Cc4cccc(C(F)(F)F)c4)c3)nc2n(CC)c1=O [GS 6201] .
True

Now try "CCOc1cc(C(=O)N2CCC(N3CCN(C)CC3)CC2)ccc1Nc1ncc2c(n1)N(C1CCCC1)c1ccccc1C(=O)N2C" .
True

Now try "CCCS(=O)(=O)c1nc(NC2CC2)cc(-c2ccc3c(ccn3C3CC(C)(C)NC(C)(C)C3)c2)n1" .
False

Now try CN(C)C(=O)C(CCN1CCC(O)(c2ccc(Cl)cc2)CC1)(c1ccccc1)c1ccccc1.Cl [LOPERAMIDE HYDROCHLORIDE] .
True

====

I'd appreciate it if you could supply Population Fragmented Nuclei (%) values for the items below.
System: HEK-293T
ASSAY_METHOD_TEXT: Multiplex assay against HEK293T
Type: toxicity, cell-based
ASSAY_CONTEXT: human, 24 h, 1 µM, compound concentration 1 uM, replicate 1
Answer format: number, then unit.

Which Population Fragmented Nuclei (%) is reported with HEK-293T for this entry: O=C(Cc1ccc(-c2ccc(OCCN3CCOCC3)cc2)cn1)NCc1ccccc1 [TIRBANIBULIN] ?
17%

Now try Cc1cn(-c2cc(NC(=O)c3ccc(C)c(Nc4nccc(-c5cccnc5)n4)c3)cc(C(F)(F)F)c2)cn1 [NILOTINIB] .
14%

Now try CCCS(=O)(=O)Nc1ccc(F)c(C(=O)c2c[nH]c3ncc(Cl)cc23)c1F [PLX-4720] .
13%

Now try "COc1ccc(S(=O)(=O)N(CCO)c2ccccc2CN(C)C/C=C/c2ccc(Cl)cc2)cc1.O=P(O)(O)O" .
13%

====

I'd appreciate it if you could supply Population Membrane Permeable-Phenotype (%) values for the items below.
Test system: Fibroblast
ASSAY_METHOD_TEXT: Multiplex assay against human fibroblast
Assay type: toxicity, cell-based
ASSAY_CONTEXT: 48 h, 10 µM, compound concentration 10 uM, replicate 1
Answer format: number, then unit.

Endpoint output: Population Membrane Permeable-Phenotype (%) of "S=C(NCCCc1c[nH]cn1)NCCCN(Cc1ccc(Cl)c(Cl)c1)c1ccc(Br)cn1" . Value?
39%

Now try "Cc1ccc(C(=O)Nc2cccc(C(F)(F)F)c2)cc1Nc1nc(-c2cccnc2)nc2c1cnn2C" .
40%

Now try "Cl.O=c1c2cccn2c2ccccc2n1CCCN1CCC(c2ccc(Cl)cc2)CC1" .
2%

Now try "CN1CCN(C(=O)C(C)(C)c2ccc(C(=O)Nc3cn4cc(-c5ccncc5)ccc4n3)cc2)CC1" .
32%

Now try "COCC(=O)NC/C=C/c1ccc2ncnc(Nc3ccc(Oc4ccc(C)nc4)c(C)c3)c2c1" .
10%

Now try "O=C(Nc1ccc(Cl)cc1)Nc1cccc(-c2cccc(N3CCCC3)n2)c1" .
35%

Now try "Cl.Oc1ccc2c3c1O[C@H]1c4[nH]c5c(c4C[C@@]4(O)[C@@H](C2)N(CC2CC2)CC[C@]314)C[C@@]1(O)[C@H]2Cc3ccc(O)c4c3[C@@]1(CCN2CC1CC1)[C@H]5O4" .
30%

Now try "CNc1cc(Oc2cc(C(=O)Nc3cc(N4CCN(C)CC4)cc(C(F)(F)F)c3)ccc2C)ncn1" .
36%

====

Tested on: HEK-293T
ASSAY_METHOD_TEXT: Multiplex assay against HEK293T
Format: toxicity, cell-based
ASSAY_CONTEXT: human, 12 h, 1 µM, compound concentration 1 uM, replicate 1
# if value of Population Healthy Nuclei (%) reaches 40%, tag Satisfied; if it stays below, tag Not satisfied

Reported Population Healthy Nuclei (%) at or above 40%? CN1CCC(=C2c3ccccc3CC(=O)c3sccc32)CC1.O=C(O)/C=C/C(=O)O [KETOTIFEN FUMARATE]
Not satisfied

Now try "CN1CCN(C(=O)C(C)(C)c2ccc(C(=O)Nc3cn4cc(-c5cc(C(C)(C)C)cc(C(C)(C)C)c5)ccc4n3)cc2)CC1" .
Satisfied

Now try "CCn1cc(-c2ccnc3[nH]c(-c4cccc(CN(C)C)c4)cc23)c(-c2ccc(NC(=O)N(C)C)cc2)n1" .
Satisfied

Now try "CNC(=O)c1ccc(Nc2nc(OC3CCCC3)c3c(-c4ccc5nc(C)oc5c4)c[nH]c3n2)c(OC)c1" .
Not satisfied

Now try CN(C)C(=O)C(CCN1CCC(O)(c2ccc(Cl)cc2)CC1)(c1ccccc1)c1ccccc1.Cl [LOPERAMIDE HYDROCHLORIDE] .
Not satisfied

Now try "Cc1ccc(C(=O)Nc2cccc(C(F)(F)F)c2)cc1Nc1nc(-c2cccnc2)nc2c1cnn2C" .
Not satisfied

These entries and their values trace back to ChEMBL document CHEMBL4689842.
